// half-life lookup, one value per entry
procedure text: Half life in rat liver microsomes
Assay type: ADME, Microsome
Output spec: scalar in h, unitless text.

Example entries begin here.
Cn1c(Nc2ccc(Br)cc2F)c(C(=O)NOC[C@@H](O)CO)c2c1C(=O)CCC2 : 1.17
C#Cc1ccc(Nc2c(C(=O)NOCCO)c3c(n2C)C(=O)CC3)c(F)c1 : 2.5
Cn1c(Nc2ccc(I)cc2F)c(C(=O)NOC[C@@H](O)CO)c2c1C(=O)CC2 : 0.9
Cn1c(Nc2ccc(I)cc2F)c(C(=O)NOC[C@H](O)CO)c2c1C(=O)CC2 : 0.9
Cn1c(Nc2ccc(Br)cc2F)c(C(=O)NOC[C@H](O)CO)c2c1C(=O)CCC2 : 1.42

(Q) Request the reported half-life associated with O=C(NOCCO)c1c(Nc2ccc(I)cc2F)c(Cl)c(=O)n2c1CCC2
(A) 0.9

(Q) Request the reported half-life associated with Cc1c(Nc2ccc(I)cc2F)c(C(=O)NOCCO)c2n(c1=O)CCC2
(A) 0.667

(Q) Request the reported half-life associated with C#Cc1ccc(Nc2c(C(=O)NOCCO)c3c(n2C)C(=O)CCC3)c(F)c1
(A) 0.633
